target desc: PKACα (Homo sapiens)
pIC50: −log10 of the molar value.

compound: CC/C(=N\NC(=O)C(C)Nc1ccccc1)c1ccc(O)c(C)c1O (stereo not shown)
pIC50: 7.63

====

target desc: LATS2 (Homo sapiens)
Sequence (Q9NRM7 1-1088): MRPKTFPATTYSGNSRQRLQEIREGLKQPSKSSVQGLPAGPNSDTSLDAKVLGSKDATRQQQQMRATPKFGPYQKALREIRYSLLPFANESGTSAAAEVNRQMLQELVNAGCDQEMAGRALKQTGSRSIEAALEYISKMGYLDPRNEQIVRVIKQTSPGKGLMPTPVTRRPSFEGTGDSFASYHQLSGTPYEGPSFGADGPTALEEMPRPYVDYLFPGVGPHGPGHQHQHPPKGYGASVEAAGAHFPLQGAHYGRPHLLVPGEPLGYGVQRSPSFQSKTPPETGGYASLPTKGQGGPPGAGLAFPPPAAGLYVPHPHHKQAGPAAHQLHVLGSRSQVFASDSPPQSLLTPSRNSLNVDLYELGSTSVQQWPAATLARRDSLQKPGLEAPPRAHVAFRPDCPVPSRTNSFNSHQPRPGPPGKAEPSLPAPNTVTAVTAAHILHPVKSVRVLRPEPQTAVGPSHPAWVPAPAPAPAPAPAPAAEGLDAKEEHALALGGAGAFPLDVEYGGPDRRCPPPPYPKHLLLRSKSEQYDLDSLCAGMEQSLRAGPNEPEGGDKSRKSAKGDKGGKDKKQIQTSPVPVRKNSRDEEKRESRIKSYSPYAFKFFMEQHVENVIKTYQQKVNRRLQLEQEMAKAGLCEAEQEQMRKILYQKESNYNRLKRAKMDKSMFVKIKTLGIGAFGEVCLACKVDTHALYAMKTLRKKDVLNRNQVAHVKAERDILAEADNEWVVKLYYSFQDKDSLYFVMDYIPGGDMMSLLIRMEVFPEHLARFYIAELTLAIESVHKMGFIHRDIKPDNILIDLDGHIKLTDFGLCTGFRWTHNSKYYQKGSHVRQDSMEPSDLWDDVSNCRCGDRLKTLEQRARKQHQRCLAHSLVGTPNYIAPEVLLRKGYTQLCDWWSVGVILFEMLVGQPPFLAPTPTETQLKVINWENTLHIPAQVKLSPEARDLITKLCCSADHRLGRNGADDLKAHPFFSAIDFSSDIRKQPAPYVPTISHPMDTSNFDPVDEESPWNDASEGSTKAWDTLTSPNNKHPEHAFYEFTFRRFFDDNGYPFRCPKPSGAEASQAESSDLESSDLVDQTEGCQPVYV
experiment description: Off-chip Mobility Shift Assay (MSA method), kinase inhibition
Assay type: biochemical
condition: MSA method; 10 steps from 10 μM to 0.3 nM
pIC50: −log10 of the molar value.

compound: CC/C(=N\NC(=O)C(C)Nc1ccccc1)c1ccc(O)c(C)c1O (stereo not shown)
pIC50: 8.29
//
compound: CC/C(=N\NC(=O)NCc1ccccc1)c1ccc(O)c(C)c1O
pIC50: 7.02
//
compound: CCC(=NNC(=O)CNc1ccccc1O)c1ccc(O)c(C)c1O
pIC50: 7.48
//
compound: Cc1c(O)ccc(C(CC(C)C)=NNC(=O)CNc2ccccc2)c1O
pIC50: 7.67
//
compound: CC/C(=N\NC(=O)NCc1cccc(O)c1)c1ccc(O)c(C)c1O
pIC50: 8.28
//
compound: CCC(=NNC(=O)NC(C)c1cccc(O)c1)c1ccc(O)c(C)c1O (stereo not shown)
pIC50: 7.82
//
compound: CCC(=NNC(=O)CNc1cccc(C)c1)c1ccc(O)c(C)c1O
pIC50: 7.33
//
compound: CCC(=NNC(=O)C(CC)Nc1ccccc1)c1ccc(O)c(C)c1O (stereo not shown)
pIC50: 8.18
//
compound: CC/C(=N\NC(=O)CNc1cccc(O)c1)c1ccc(O)c(C)c1O
pIC50: 8.74
//
compound: CCC(=NNC(=O)CNc1ccccc1)c1ccc(O)c(C)c1O
pIC50: 7.89
